Target: human NADK (cNADK, full-length) (Homo sapiens, UniProt O95544, C349S)
Construct: full-length, modified pET28a, His tag cleaved by TEV, E. coli BL21, HisTrap / Resource Q / Superdex 200, tetramer
Sequence (O95544 whole entry C349S): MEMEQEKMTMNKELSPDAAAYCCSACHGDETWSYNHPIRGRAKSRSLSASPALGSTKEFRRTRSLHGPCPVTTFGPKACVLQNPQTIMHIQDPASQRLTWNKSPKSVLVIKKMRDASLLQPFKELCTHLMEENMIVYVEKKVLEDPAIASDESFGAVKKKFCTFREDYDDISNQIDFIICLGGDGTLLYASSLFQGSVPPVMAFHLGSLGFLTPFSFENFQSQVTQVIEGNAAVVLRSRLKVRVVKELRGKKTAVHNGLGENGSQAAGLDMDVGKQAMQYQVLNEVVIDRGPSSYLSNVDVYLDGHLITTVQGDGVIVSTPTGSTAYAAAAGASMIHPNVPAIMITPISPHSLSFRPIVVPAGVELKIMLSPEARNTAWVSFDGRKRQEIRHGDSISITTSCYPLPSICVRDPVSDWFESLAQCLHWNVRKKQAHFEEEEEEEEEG
Experiment: isothermal titration calorimetry
valueKind: pKd
Formally, pKd is defined as -log10 of the concentration c, with c in mol/L.

Ask: Answer with the recorded pKd of NC(=O)c1ccc[n+]([C@@H]2O[C@H](COP(=O)([O-])OP(=O)(O)OC[C@H]3O[C@@H](n4cnc5c(N)ncnc54)[C@H](O)[C@@H]3O)[C@@H](O)[C@H]2O)c1 only.
Result: 4.06
